System: U2OS
Experiment: cell viability relative to DMSO; higher = less toxic
Details: 72 h; 1 nM
Exercise: for every item that follows, state its recorded cell viability.
Hi! Could you send only the number? It should be in %, unit omitted.

State the recorded cell viability for this entry: Oc1nc(O)c2cn[nH]c2n1 101

What do you get for CN(CC[C@@H](Oc1ccc(-c2ccccc2)cc1)c1ccc(F)cc1)CC(=O)O ? 98.3

What do you get for CC(=O)NC1=NN(C(C)=O)[C@](C)(c2ccccc2)S1 ? 97

What do you get for O=c1n(CCCN2CCN(c3cccc(Cl)c3)CC2)nc2ccccn12 ? 102

What do you get for COc1ccc(/C=C\c2cc(OC)c(OC)c(OC)c2)cc1O ? 94.5

What do you get for O=C1CCCN1CC#CCN1CCCC1 [oxotremorine-sesquifumarate] ? 97

What do you get for Cc1cccn2c(=O)c(-c3nnn[nH]3)cnc12 ? 98.4

What do you get for COc1cccc(-c2ccc(NC(=O)C3=C(C(=O)O)CCC3)c(F)c2)c1 ? 99

What do you get for CC(C)OC(=O)OCOP(=O)(CO[C@H](C)Cn1cnc2c(N)ncnc21)OCOC(=O)OC(C)C ? 96.2

---

Exercise: for every item that follows, state its recorded cell viability.
Test system: U2OS
Assay: cell viability relative to DMSO; higher = less toxic
Conditions: 72 h; 1000 nM
Hi! Could you send only the number? It should be in %, unit omitted.

State the recorded cell viability for this entry: N[C@H](C(=O)O)c1cc(O)no1 [ibotenic-acid] 102

What do you get for CSc1ccc(OCc2ncc([N+](=O)[O-])n2C)cc1 [fexinidazole] ? 97.1

What do you get for COc1ccc(/C=C2\CCCN=C2c2cccnc2)c(OC)c1 [GTS21] ? 102

What do you get for Cc1cc2nc3c(=O)[nH]c(=O)nc-3n(C[C@H](O)[C@H](O)[C@H](O)CO)c2cc1C [riboflavin] ? 102

What do you get for CCCc1nn(C)c2c(=O)[nH]c(-c3cc(S(=O)(=O)N4CCN(C)CC4)ccc3OCC)nc12 [sildenafil] ? 99.9

What do you get for CC(C)OC(=O)OCOP(=O)(CO[C@H](C)Cn1cnc2c(N)ncnc21)OCOC(=O)OC(C)C [tenofovir-disoproxil] ? 103

What do you get for CC(C)(CO)[C@@H](O)C(=O)NCCC(=O)O [pantothenic-acid] ? 92.3

What do you get for O=C1C(=O)N(Cc2ccc(Cl)c(Cl)c2)c2ccccc21 [apoptosis-activator-II] ? 94.4

What do you get for CN1CCN(c2ncc(-c3cc(Cl)cc(Cl)c3Cl)c(N)n2)CC1 [sipatrigine] ? 103

What do you get for COc1ccc(/C=C\c2cc(OC)c(OC)c(OC)c2)cc1O [combretastatin-A-4] ? 23.6

What do you get for Cc1ccc2cc(-c3c(C)ccc(C(=O)c4c(-c5ccccc5)n(C)n(-c5ccccc5)c4=O)c3N)ccc2n1 [AMG-PERK-44] ? 102

What do you get for O=C(O)c1cc(N2N=C(C(F)(F)F)/C(=C/c3ccc(-c4ccccc4)o3)C2=O)ccc1Cl [EN460] ? 98.6

What do you get for O=C(O[C@@H]1Cc2c(O)cc(O)cc2O[C@@H]1c1ccc(O)c(O)c1)c1cc(O)c(O)c(O)c1 [epicatechin-gallate-(-)] ? 97.2

What do you get for NCCc1c[nH]c2ccc(O)cc12 [serotonin] ? 97.3

What do you get for Nc1nc(NC[C@H]2CC[C@H](CNS(=O)(=O)c3cccc4ccccc34)CC2)nc2ccccc12 ? 96.8

What do you get for C=C1/C(=C\C=C2/CCC[C@]3(C)[C@@H]([C@H](C)CCCC(O)(C(F)(F)F)C(F)(F)F)CC[C@@H]23)C[C@@H](O)C[C@@H]1O [falecalcitriol] ? 92.7

What do you get for O=C(c1cncc(Br)c1)N1CCC(N2CCCC2)CC1 [UNC669] ? 102

What do you get for O=C(O)CCc1ccc(NCc2cccc(Oc3ccccc3)c2)cc1 [GW-9508] ? 102

---

System: U2OS
Assay: cell viability relative to DMSO; higher = less toxic
Conditions: 72 h; 1000 nM
outcome-measure: cell viability (%)
Hi! Could you send only the number? It should be in %, unit omitted.

State the recorded cell viability for this entry: Cc1cccc(Cc2c[nH]cn2)c1C 96.5

What do you get for COc1ccc(C(=O)C2CCN(CC(=O)N(Cc3nc4c(c(=O)[nH]3)COCC4)CC3CC3)CC2)cc1 ? 88.9

What do you get for CNC(=O)[C@@H](Cc1ccccc1)N(C)C(=O)[C@@H](Cc1ccc2ccccc2c1)N(C)C(=O)/C=C/CC(C)(C)N ? 103

What do you get for c1cnc2c([O][Ga]([O]c3cccc4cccnc34)[O]c3cccc4cccnc34)cccc2c1 [gallium-triquinolin-8-olate] ? 102

What do you get for CC(=O)OCC1=C(C(=O)O)N2C(=O)[C@@H](NC(=O)CS/C(=N/C(C)C)NC(C)C)[C@H]2SC1 ? 98.8

What do you get for Cc1cc2c(OCC(CNC(C)(C)C)OC(=O)c3ccccc3)cccc2[nH]1 (centres undefined) ? 110

What do you get for N[C@@H](CSS(=O)(=O)O)C(=O)O ? 102

What do you get for O=C(/C=C/c1ccc(O)c2c1[C@H](C(=O)O[C@H](Cc1ccc(O)c(O)c1)C(=O)O)[C@@H](c1ccc(O)c(O)c1)O2)O[C@H](Cc1ccc(O)c(O)c1)C(=O)O ? 101

What do you get for COc1ccc(Cn2ccc3ccc(C(=O)NO)cc32)cc1 ? 97

---

System: Vero E6
Experiment: cell viability relative to DMSO; higher = less toxic
Conditions: 72 h; 10 nM
outcome-measure: cell viability
Mention the unit after the number when you answer.

State the recorded cell viability for this entry: Cc1oc2nc3c(c(NC(=O)CN4CCCC4=O)c2c1C)CCCC3 93.8%

What do you get for Ic1cc(-c2ccccc2)ncn1 ? 102%

What do you get for CC(Cc1cccc(C(F)(F)F)c1)NCCOC(=O)c1ccccc1 (stereo not drawn) ? 107%

What do you get for CC1(C)CC[C@]2(C(=O)O)CC[C@]3(C)C(=CC[C@@H]4[C@@]5(C)CC[C@H](O)C(C)(C)[C@@H]5CC[C@]43C)[C@@H]2C1 ? 94.7%

What do you get for CC(C)(C)c1cc(O)c(C(C)(C)C)cc1O ? 96%

What do you get for COc1ccc(CCN(C)CCCN2CCc3cc(OC)c(OC)cc3CC2=O)cc1OC ? 98.4%

What do you get for CCCCNc1nc(N)c2[nH]c(=O)n(Cc3ccc(OCCN(C)C)nc3)c2n1 ? 99.1%

What do you get for C=C1/C(=C\C=C2/CCC[C@]3(C)[C@@H]([C@H](C)CCCC(O)(C(F)(F)F)C(F)(F)F)CC[C@@H]23)C[C@@H](O)C[C@@H]1O ? 96.2%

What do you get for CCOC(=O)[C@H](Cc1ccccc1)NC(=O)c1cc(Cl)c(OCCN2CCN(C)CC2)c(Cl)c1O ? 99.1%

What do you get for O=C(O)c1cc2occc2[nH]1 ? 104%

What do you get for COc1cc(OC)c(OC)cc1C=O ? 100%

What do you get for COc1ccc(C2(O)CCC(N3CC[C@@H](NC(=O)CNC(=O)c4cccc(C(F)(F)F)c4)C3)CC2)cn1 (stereo partly drawn) ? 97.8%

What do you get for Nc1nc(Cl)nc2c1ncn2[C@@H]1O[C@H](CO)[C@@H](O)[C@@H]1F ? 91.5%

What do you get for COc1ccc(/C=C\c2cc(OC)c(OC)c(OC)c2)cc1O ? 63.9%

What do you get for COc1cc2c(cc1OC)CN(C(=O)[C@@H](NCc1ccncc1)C(C)(C)C)CC2 ? 91.9%

What do you get for COc1cc2c(c(OC)c1OC)-c1c(cc3c(c1OC)OCO3)CC(C)C(C)C2 (stereo not drawn) ? 98.5%

What do you get for COc1ccccc1OCC(O)CNC(C)C (stereo not drawn) ? 99.6%

What do you get for C=CC(=O)Nc1cccc(Nc2nc(Nc3ccc(Oc4ccnc(C(=O)NC)c4)cc3)ncc2F)c1 ? 98.1%

What do you get for Cc1ccccc1CN1C2=NCCN2C(=O)C2=C1CCN(Cc1ccccc1)C2 ? 106%

What do you get for CN(Cc1cccc(-c2ccccc2)c1)C(=O)Oc1ccc(-c2ccc(C(N)=O)cc2)cc1 ? 100%

What do you get for CCc1c(-c2ccccc2)c(-c2ccccc2)nn1-c1ccccc1-c1cccc(OCC(=O)O)c1 ? 103%

What do you get for O=C(N[C@H]1CN2CCC1CC2)c1cc2cccc(Cl)c2s1 ? 92.2%

What do you get for CCCc1cc(C)[nH]c(=O)c1CNC(=O)c1cc(-c2ccc(N3CCN(C(C)C)CC3)nc2)cc2c1cnn2C(C)C ? 94.6%

What do you get for COc1ccc2[nH]cc(C3=CCNCC3)c2c1 ? 98.7%

What do you get for CN(C)CCN(C)CCc1ccc(Cl)c(Cl)c1 ? 104%

What do you get for CC(C)CC(=O)Nc1n[nH]c2c1CN(C(=O)C1CCN(C)CC1)C2(C)C ? 106%

What do you get for Cc1cc(C(=O)O)sc1C(N)C(=O)O (stereo not drawn) ? 99.2%

What do you get for O=C(C[S+]([O-])Cc1ccco1)NC/C=C\COc1cc(CN2CCCCC2)ccn1 (stereo not drawn) ? 100%

What do you get for CCCc1nc(C(C)(C)O)c(C(=O)OCc2oc(=O)oc2C)n1Cc1ccc(-c2ccccc2-c2nnn[nH]2)cc1 ? 99.2%

What do you get for C[C@@H]1CN([C@H]2CC[C@](C#N)(c3ccc(F)cc3)CC2)CC[C@]1(C(=O)O)c1ccccc1 ? 106%

What do you get for CNCCn1c(=O)c2cc(OC)c(OC)cc2c2cnc3cc4c(cc3c21)OCO4 ? 94.7%

What do you get for COc1ccc(/C=C2\CCCN=C2c2cccnc2)c(OC)c1 ? 100%

What do you get for Cc1nc2ccccc2n1Cc1ccc(Cl)cc1 ? 107%
